Values from BindingDB's records for doi:10.1074/jbc.M113.529529

- Tested System: Beta-galactosidase [24-677,I51T] (Human, UniProt P16278, I51T)
- Construct: 24-677
- Assay Method Text: β-Gal Inhibitory Assay
- Assay Conditions: pH 4.5; 37 °C
Measured Quantity: Ki (µM)

[[record]]
molecule = "CCCCNC(=S)N1CC(O)[C@@H](O)[C@@H](O)C1CO (stereo not given in full)"
uom = "µM"
quantitative_result = 329

[[record]]
molecule = "CCCCCCCCN[C@H]1C=C(CO)[C@@H](O)[C@H](O)[C@H]1O"
uom = "µM"
quantitative_result = 1.2


P: OC[C@H]1OC(O)[C@H](O)[C@@H](O)[C@H]1O (stereo not given in full)
Q: CCCC/N=C1/SCC2[C@H](O)[C@H](O)C(O)[C@@H](O)N12 (stereo not given in full)
R: CCCC/N=C1\SC[C@@H]2[C@H](O)[C@H](O)[C@@H](O)CN12
Exercise: Arrange by Ki, high to low. Answer with the labels in sequence, matching the requested order.
Solution: P, Q, R
(P: 4910 µM, Q: 320 µM, R: 68.8 µM)

====

- Tested System: Beta-galactosidase [24-677,R201C] (Human, UniProt P16278, R201C)
- Construct: 24-677
- Assay Method Text: β-Gal Inhibitory Assay
- Assay Conditions: pH 4.5; 37 °C
Measured Quantity: Ki (µM)

Some solved cases for reference:
[[record]]
compound = "CCCC/N=C1\\SC[C@@H]2[C@H](O)[C@H](O)[C@@H](O)CN12"
quantitative_result = 53.3

[[record]]
compound = "CCCC/N=C1/SCC2[C@H](O)[C@H](O)C(O)[C@@H](O)N12 (stereo not given in full)"
quantitative_result = 320

[[record]]
compound = "CCCCCCCCN[C@H]1C=C(CO)[C@@H](O)[C@H](O)[C@H]1O [NOEV]"
quantitative_result = 0.94


A: OC[C@H]1OC(O)[C@H](O)[C@@H](O)[C@H]1O (stereo not given in full) [Galactose]
B: CCCCNC(=S)N1CC(O)[C@@H](O)[C@@H](O)C1CO (stereo not given in full)
Exercise: From the items above, decide which of A and B has the lower Ki reading. // caller expects the label of the chosen entry
Solution: B
(B: 388 µM, A: 5610 µM)

====

- Tested System: Beta-galactosidase [24-677] (Human, UniProt P16278)
- Sequence (P16278 24-677): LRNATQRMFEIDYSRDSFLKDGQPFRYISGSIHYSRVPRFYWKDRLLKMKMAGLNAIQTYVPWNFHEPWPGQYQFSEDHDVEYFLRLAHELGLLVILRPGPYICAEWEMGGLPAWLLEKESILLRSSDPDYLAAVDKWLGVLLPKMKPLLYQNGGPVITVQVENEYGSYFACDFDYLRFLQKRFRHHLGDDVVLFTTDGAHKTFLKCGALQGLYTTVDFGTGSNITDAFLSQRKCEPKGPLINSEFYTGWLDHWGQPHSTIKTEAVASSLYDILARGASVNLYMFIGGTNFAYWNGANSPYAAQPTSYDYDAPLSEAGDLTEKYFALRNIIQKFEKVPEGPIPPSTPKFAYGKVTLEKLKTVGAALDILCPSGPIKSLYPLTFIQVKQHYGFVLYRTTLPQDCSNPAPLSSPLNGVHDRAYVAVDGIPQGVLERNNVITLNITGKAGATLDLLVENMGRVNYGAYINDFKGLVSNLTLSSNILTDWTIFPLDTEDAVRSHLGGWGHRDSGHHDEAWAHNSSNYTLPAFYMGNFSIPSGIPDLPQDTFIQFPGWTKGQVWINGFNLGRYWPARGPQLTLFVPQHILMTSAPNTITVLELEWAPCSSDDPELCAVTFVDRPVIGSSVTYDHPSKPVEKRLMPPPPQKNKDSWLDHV
Measured Quantity: Ki (µM)

[[record]]
compound = "CCCCCCCCN[C@H]1C=C(CO)[C@@H](O)[C@H](O)[C@H]1O"
tested_system = "Beta-galactosidase [24-677] (Human, UniProt P16278)"
quantitative_result = 1.1


A: CCCCNC(=S)N1CC(O)[C@@H](O)[C@@H](O)C1CO (stereo partly drawn)
B: OC[C@H]1OC(O)[C@H](O)[C@@H](O)[C@H]1O (stereo partly drawn)
Exercise: Which value of Ki is smaller, the one for A or the one for B ? Selection: enter the item's label.
Solution: A
(A: 373 µM, B: 4140 µM)
